# run.conditions: 413.15 K; Liquid; Closed cell (Static) method
property.name: vapor or sublimation pressure (kPa)

- test.smiles: "Cc1cccs1"
  readout.units: "kPa"
  vapor or sublimation pressure: 209.8
- test.smiles: "CC(C)CC(C)(C)C"
  readout.units: "kPa"
  vapor or sublimation pressure: 282.8

(A) CCc1cccs1
(B) C=CCCCCCC
Query :: Of A versus B , which is the one with smaller reported vapor or sublimation pressure? Bench note: the answer is the label of the chosen record.
Result :: A

Where do these numbers come from? They come from the NIST ThermoML archive (doi:10.1021/je050473r).
